Tested on: Human immunodeficiency virus 1
Experiment: Antiviral activity against HIV1 NARI-DR infected in human TZM-bl cells incubated for 48 hrs by bright Glo-luciferase reporter gene assay
Type: functional, organism-based
Conditions: Human immunodeficiency virus 1, NARI-DR
pIC50: −log10 of the molar value.
observable: pIC50

INSERT INTO results (compound, recorded_value) VALUES
  ('Cc1ccnc2c1NC(=O)c1cccnc1N2C1CC1 [NEVIRAPINE]', 3.63),
  ('Cc1cc(C)cc(-n2ncc3c(=O)[nH]c(C)cc32)c1', 5.60);

###

Test: Therapeutic index, ratio of CC50 for human TZM-bl cells to IC50 for antiviral activity against HIV1 NARI-DR infected in human TZM-bl cells
Assay type: toxicity, cell-based
Settings: read-out: Ratio CC50/IC50
observable: selectivity ratio

INSERT INTO measurements (compound, observable, recorded_value) VALUES
  ('Cc1ccnc2c1NC(=O)c1cccnc1N2C1CC1 [NEVIRAPINE]', 'selectivity ratio', 2.6),
  ('Cc1cc(C)cc(-n2ncc3c(=O)[nH]c(C)cc32)c1', 'selectivity ratio', 268);

Taken from ChEMBL document CHEMBL4406854.
